- System: ZR-75-1
- ASSAY: viability inhibition at highest dose (% inhibition); higher = more growth inhibition
- STUDY CONDITIONS: 4-OH-tamoxifen in medium 0 µM; 72 h
Where a name gives a salt, the structure may show the parent alone.
MEASUREMENT KIND: viability inhibition at highest dose
Give a plain numeric answer without units written out.

Please report viability inhibition at highest dose for the following compound: C=CC(=O)N1CCC[C@@H](n2nc(-c3ccc(Oc4ccccc4)cc3)c3c(N)ncnc32)C1 (drug 1000 nM)
7.99

Give reported viability inhibition at highest dose value for Cn1c(CCCC(=O)O)nc2cc(N(CCCl)CCCl)ccc21 [Bendamustine (hydrochloride hydrate)] (drug 10000 nM)
-7.06

Dear colleague, please send me the reported viability inhibition at highest dose for CCN1CCN(c2ccc(Nc3cc(N(C)C(=O)Nc4c(Cl)c(OC)cc(OC)c4Cl)ncn3)cc2)CC1 [NVP-BGJ398] (drug 1000 nM) when you can.
-1.6

Respond only with viability inhibition at highest dose recorded for CCc1c(C(=O)C(N)=O)c2c(OCC(=O)O)cccc2n1Cc1ccccc1 [Varespladib] (drug 10000 nM)
-0.701

For C#Cc1cccc(Nc2ncnc3cc(OC)c(OCCCCCCC(=O)NO)cc23)c1 [CUDC-101] (drug 10000 nM) , write its viability inhibition at highest dose.
42.7

Identify measured viability inhibition at highest dose associated with Oc1nc(-c2ccc(C(F)(F)F)cc2)nc2c1CSCC2 [XAV-939] (drug 10000 nM)
5.02

Give viability inhibition at highest dose for Nc1nc(=O)c2c([nH]1)NCC(CNc1ccc(C(=O)N[C@@H](CCC(=O)O)C(=O)O)cc1)N2C=O (mixture of isomers) [Folinic acid] (drug 990000 nM)
3.64

* * *

Would you kindly list relative IC50 for each of these compounds?
- Tested on: ZR-75-1 Tam1
- ASSAY: relative IC50 (midpoint of fitted logistic curve, plateau may be below 50% inhibition; CellTiter-Glo viability); higher = less potent
- STUDY CONDITIONS: 4-OH-tamoxifen in medium 1 µM; 72 h

// fetch relative IC50 for COc1cc(Nc2ncc3c(n2)-c2ccc(Cl)cc2C(c2c(F)cccc2OC)=NC3)ccc1C(=O)O [Alisertib (MLN8237)] ; system: ZR-75-1 Tam1
> 10 µM

Lab note: record relative IC50 of CC1(C)NC(=O)N(c2ccc([N+](=O)[O-])c(C(F)(F)F)c2)C1=O [Nilutamide] tested on ZR-75-1 Tam1.
> 10 µM

Answer briefly: relative IC50 recorded on ZR-75-1 Tam1 for Cc1c(CN2CCN(C(=O)[C@H](C)O)CC2)sc2c(N3CCOCC3)nc(-c3cnc(N)nc3)nc12 [GDC-0980]
0.178 µM

Fetch value of relative IC50 on ZR-75-1 Tam1 for CC(C)Cn1cnc2c(N)nc3ccccc3c21 [Imiquimod] .
> 10 µM

* * *

- System: ZR-75-1 Tam2
- ASSAY: drug sensitivity score (DSS) (DSS (dimensionless)); higher = more sensitive; extreme values may be limits of the assay
- STUDY CONDITIONS: 4-OH-tamoxifen in medium 1 µM; 72 h
Structures can show the parent of a compound that is named as a salt.
MEASUREMENT KIND: drug sensitivity score
Just the number.

Return drug sensitivity score (reported value) for this compound: COc1cc([C@@H]2c3cc4c(cc3[C@@H](O[C@@H]3O[C@@H]5CO[C@@H](c6cccs6)O[C@H]5[C@H](O)[C@H]3O)[C@H]3COC(=O)[C@H]23)OCO4)cc(OC)c1O [Teniposide]
5.1

Write down drug sensitivity score measured for item Cc1ccc(F)c(NC(=O)Nc2ccc(-c3cccc4[nH]nc(N)c34)cc2)c1
0

Kindly indicate its recorded drug sensitivity score. Item: Cn1cc(C2=Nc3cc(NC(=O)C(N)C4CCCCC4)cc4c3C2=CNNC4=O)cn1 (stereo not drawn)
0

Give the reported value of drug sensitivity score for this record: CNC(=O)c1ccccc1Sc1ccc2c(/C=C/c3ccccn3)n[nH]c2c1
1.49

Please indicate drug sensitivity score recorded for C[C@]12O[C@H](C[C@]1(O)CO)n1c3ccccc3c3c4c(c5c6ccccc6n2c5c31)CNC4=O
0.0147

Return drug sensitivity score for the following compound: CC/C(=C(\c1ccccc1)c1ccc(OCCN(C)C)cc1)c1ccccc1 [Tamoxifen citrate]
0.865

Consider the compound C=CCN(/C=C1/C(=O)O[C@H](COC)[C@@]2(C)C1=C(O)C(=O)C1=C2[C@H](OC(C)=O)C[C@]2(C)C(=O)CC[C@@H]12)CC=C . State its measured drug sensitivity score.
0.0742

For the compound C/C(=C\c1csc(C)n1)[C@@H]1C[C@@H]2O[C@]2(C)CCC[C@H](C)[C@H](O)[C@@H](C)C(=O)C(C)(C)[C@@H](O)CC(=O)N1 [Ixabepilone] , give its reported drug sensitivity score.
0

Identify drug sensitivity score associated with the compound CC1(C)NC(=O)N(c2ccc([N+](=O)[O-])c(C(F)(F)F)c2)C1=O [Nilutamide]
0

Return drug sensitivity score for the following compound: Nc1cccc2c1CN(C1CCC(=O)NC1=O)C2=O (stereo not drawn) [Lenalidomide]
0

Consider the compound Cc1ccc(C(=O)N(CCCN)[C@@H](c2oc3cc(Cl)ccc3c(=O)c2Cc2ccccc2)C(C)C)cc1 . State its measured drug sensitivity score.
0

Give recorded drug sensitivity score. Cc1ccc([N+](=O)[O-])cc1S(=O)(=O)N(C)/N=C/c1cnc2ccc(Br)cn12 [PIK-75 (HCl)]
18.9

Give a short answer stating reported drug sensitivity score for CN1CCN(c2nc(C3=C(c4c[nH]c5ccccc45)C(=O)NC3=O)c3ccccc3n2)CC1 .
0

# return recorded drug sensitivity score for input COc1cc2nccc(Oc3ccc(NC(=O)Nc4cc(C)on4)c(Cl)c3)c2cc1OC
0

Given O=C(Nc1c[nH]nc1-c1nc2ccc(CN3CCOCC3)cc2[nH]1)NC1CC1 , respond with its drug sensitivity score.
0

Given the compound CC(=O)[C@]1(O)Cc2c(O)c3c(c(O)c2[C@@H](O[C@H]2C[C@H](N)[C@H](O)[C@H](C)O2)C1)C(=O)c1ccccc1C3=O , write its reported drug sensitivity score.
7.63

Retrieve drug sensitivity score measured for CS(=O)(=O)CCNCc1ccc(-c2ccc3ncnc(Nc4ccc(OCc5cccc(F)c5)c(Cl)c4)c3c2)o1 and print it.
0

Give reported drug sensitivity score value for Oc1ncnc2[nH]ncc12
0

Output drug sensitivity score of CCc1c2c(nc3ccc(OC(=O)N4CCC(N5CCCCC5)CC4)cc13)-c1cc3c(c(=O)n1C2)COC(=O)[C@]3(O)CC
3.94

Report measured drug sensitivity score; entry is C[C@H]1C[C@@H]2[C@H]([C@@H](O)C[C@@]3(C)[C@H]2CC[C@]3(O)C(=O)CO)[C@@]2(C)C=CC(=O)C=C12
0

For COc1ncc(-c2ccc3nccc(-c4ccnnc4)c3c2)cc1NS(=O)(=O)c1ccc(F)cc1F , write its drug sensitivity score.
19.4

Using known records, supply drug sensitivity score for CC(C)C[C@H](NC(=O)[C@H](CCc1ccccc1)NC(=O)CN1CCOCC1)C(=O)N[C@@H](Cc1ccccc1)C(=O)N[C@@H](CC(C)C)C(=O)[C@@]1(C)CO1
11.8

Retrieve drug sensitivity score measured for O=S(=O)(c1cccc2cnccc12)N1CCCNCC1 and print it.
0

Please indicate drug sensitivity score recorded for C[C@@H](Oc1cc(-c2cnn(C3CCNCC3)c2)cnc1N)c1c(Cl)ccc(F)c1Cl
0

Identify measured drug sensitivity score associated with COc1cc(Nc2ncc(F)c(Nc3ccc4c(n3)NC(=O)C(C)(C)O4)n2)cc(OC)c1OC [Tamatinib (R406)]
0

Using the record for CC(C)n1nc(-c2ccc3oc(N)nc3c2)c2c(N)ncnc21 , state its measured drug sensitivity score.
17.5

Determine from records and report drug sensitivity score for CC(C)(C)NC(=O)[C@H]1CC[C@H]2[C@@H]3CC[C@H]4NC(=O)C=C[C@]4(C)[C@H]3CC[C@]12C [Finasteride]
0

Provide only the value of recorded drug sensitivity score for Cc1c2oc3c(C)ccc(C(=O)N[C@@H]4C(=O)N[C@H](C(C)C)C(=O)N5CCC[C@H]5C(=O)N(C)CC(=O)N(C)[C@@H](C(C)C)C(=O)O[C@@H]4C)c3nc-2c(C(=O)N[C@@H]2C(=O)N[C@H](C(C)C)C(=O)N3CCC[C@H]3C(=O)N(C)CC(=O)N(C)[C@@H](C(C)C)C(=O)O[C@@H]2C)c(N)c1=O
23.2
